meta.source: PubChem BioAssay

- systemUnderTest: Torsin-1A (Homo sapiens) (UniProt O14656)
- Sequence (O14656 whole entry, looked up): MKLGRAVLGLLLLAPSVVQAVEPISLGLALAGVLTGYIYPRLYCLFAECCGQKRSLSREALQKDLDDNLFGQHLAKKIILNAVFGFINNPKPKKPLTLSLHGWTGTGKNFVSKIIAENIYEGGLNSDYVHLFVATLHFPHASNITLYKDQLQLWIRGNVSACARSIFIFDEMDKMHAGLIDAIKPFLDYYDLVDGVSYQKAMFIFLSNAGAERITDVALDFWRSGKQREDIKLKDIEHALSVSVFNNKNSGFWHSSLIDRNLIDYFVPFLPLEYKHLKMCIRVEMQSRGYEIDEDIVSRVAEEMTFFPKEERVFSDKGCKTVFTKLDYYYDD
- methodSummary: torsin A binders from cell lysate, primary screen, small-molecule microarray, wild-type, 635/667 nm (AID 1149)
- assaySetup: COS7 hTOR1A-WT lysate, 635 nm fluorescence, higher = more signal
# label = Y if composite z-score >= 0.1 else N

>  <compound>
CON=C[C@@H](NS(=O)(=O)c1ccc(C)cc1)[C@H](C)C=CCC(=O)OC

>  <answerLabel>
Y

$$$$
>  <compound>
CC=CC1=C(CO)C(=O)[C@@H]2O[C@@H]2C1=O

>  <answerLabel>
N

$$$$
>  <compound>
COC(=O)[C@H](C)NC(=O)CCC1CC(OC(=O)NCc2cccc3ccccc23)CC2(CCCC(COC(=O)NCC(c3ccccc3)c3ccccc3)O2)O1 (stereo partly specified)

>  <answerLabel>
Y

$$$$
>  <compound>
COc1cccc([C@H]2Oc3ccc(OC)cc3C(=NOC[C@@H](C)[C@H](OCc3ccccc3)C(C)C)[C@@H]2O)c1

>  <answerLabel>
Y

$$$$
>  <compound>
O=c1n(Cc2cc3c(cc2Cl)OCO3)c(=O)n2n1CC[C@@H]1C(=NOC[C@@H](O)COCc3ccco3)[C@H]3O[C@H]3[C@@H](O)[C@@H]12

>  <answerLabel>
Y

$$$$
>  <compound>
COC(=O)CC=C[C@@H](C)[C@@H](C=NO[C@H](C)c1cn([C@H](CO)Cc2ccccc2)nn1)NS(=O)(=O)c1ccc(C)cc1

>  <answerLabel>
Y

$$$$
>  <compound>
COC(=O)[C@H]1[C@@H](O)[C@@]2(O)c3ccccc3O[C@@]2(c2ccccc2)[C@@H]1c1ccccc1

>  <answerLabel>
N

$$$$
>  <compound>
CC[C@@H](c1ccccc1)n1c(=O)n2n(c1=O)[C@H]1[C@H](O)[C@@H]3O[C@@H]3C(=O)[C@H]1CC2

>  <answerLabel>
N

$$$$
>  <compound>
CC(CCN1CCCc2nc(C)c(C)cc21)=NOC(C)CN1CCCCc2nc(C)c(C)cc21 (stereo unspecified)

>  <answerLabel>
N

$$$$
>  <compound>
CCOC(=O)[C@H](CC(C)C)NC(=O)CCC1CC(OC(=O)NCc2cccc3ccccc23)CC2(CCCC(COC(=O)NCC3CCCCC3)O2)O1 (stereo partly specified)

>  <answerLabel>
N

$$$$
>  <compound>
CO[C@@H]1COC(=O)[C@@H]2CCCN2C(=O)[C@@H](C)COC(=O)CC=C[C@H]1C

>  <answerLabel>
Y

$$$$
>  <compound>
CC(C)CON=C1C[C@@H](O)[C@@H](O)[C@@H]2[C@@H]3C(=O)N(Cc4ccc5c(c4)OCO5)C(=O)[C@@H]3CC[C@H]12

>  <answerLabel>
Y

$$$$
>  <compound>
CCc1cc2c(nc1CC)CCN(CCC(C)=NOC[C@H]1O[C@H](c3ccccc3)C=C[C@@H]1Oc1ccc(OC)cc1)C2

>  <answerLabel>
Y

$$$$
>  <compound>
COc1cccc([C@H]2Oc3ccc(OC)cc3C(=NO[C@@H]3O[C@H](COC(C)=O)[C@@H](OC(C)=O)[C@H](OC(C)=O)[C@H]3OC(C)=O)[C@@H]2O)c1

>  <answerLabel>
Y

$$$$
>  <compound>
COc1ccc(O[C@@H]2[C@H](O)CO[C@H]2C=Cc2ccccc2)cc1

>  <answerLabel>
N

$$$$
>  <compound>
Cc1cc2c(nc1C)CCCCN2CC(C)ON=C[C@@H](C)[C@H](OCc1ccccc1)C(C)C (stereo partly specified)

>  <answerLabel>
N

$$$$

----------
Collected z-score values appear next to each entry.
- methodSummary: S. cerevisiae RM11-1a growth modifiers, primary screen, strain RM11-1a, OD600, basal, 24 h (AID 1177);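 note: cultures grown under basal conditions with no added stressor; test concentration not given here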
- assaySetup: OD600, 24 h, higher = more signal, called active from +8 up or from −8 down

>  <compound>
COc1cccc([C@H]2Oc3ccc(OC)cc3C(=NO[C@@H]3O[C@H](COC(C)=O)[C@@H](OC(C)=O)[C@H](OC(C)=O)[C@H]3OC(C)=O)[C@@H]2O)c1

>  <z-score>
-1.02

$$$$
>  <compound>
CC(CCN1CCCCc2nc(C)c(C)cc21)=NOC[C@@H](O)COCc1ccco1

>  <z-score>
0.0681

$$$$
>  <compound>
CO[C@H](C1CCCCC1)[C@H](C)C=CCC(=O)OCCCc1ccccc1

>  <z-score>
1.63

$$$$
>  <compound>
Cc1cc2c(nc1C)CCCN2CC(O)CN1CCCc2nc(C)c(C)cc21

>  <z-score>
0.255

$$$$
>  <compound>
CO[C@@H]1COC(=O)[C@@H](C)NC(=O)CC=C[C@@H](C)[C@H](NS(=O)(=O)c2ccc(C)cc2)COC(=O)[C@H](C)NC(=O)CC=C[C@H]1C

>  <z-score>
-0.489

$$$$
>  <compound>
C[C@@H]1CC[C@H]2C(=O)O[C@@H](Cc3ccccc3)CN2[C@H]1c1ccc(Br)cc1

>  <z-score>
0.37

$$$$
>  <compound>
CCc1cc2c(nc1CC)CCN(CCC(C)=NO[C@@H](C)c1cn([C@H](CO)Cc3ccccc3)nn1)C2

>  <z-score>
0.804

$$$$
>  <compound>
Cc1cc2c(nc1C)CCCCN2CC(C)ON=C[C@@H](C)[C@H](OCc1ccccc1)C(C)C (stereo partly specified)

>  <z-score>
-1.02

$$$$
>  <compound>
CCOC(=O)[C@H](CC(C)C)NC(=O)CCC1CC(OC(=O)NCCc2ccc(F)cc2)CC2(CCCC(COC(=O)NCC3CCCCC3)O2)O1 (stereo partly specified)

>  <z-score>
-0.547

$$$$
>  <compound>
COC(=O)[C@@H]1CC[C@H](C)[C@@H](c2ccc(C)cc2)N1C(=O)c1ccc(C=NOC[C@@H](C)[C@H](OCc2ccccc2)C(C)C)cc1

>  <z-score>
-2.18

$$$$
>  <compound>
CCN1C(=O)[C@H]2[C@H]3[C@H](O)[C@H](O)CC(=NNC(=O)OCc4ccc(OC)cc4)[C@@H]3CC[C@H]2C1=O

>  <z-score>
-1.33

$$$$
>  <compound>
CCOC(=O)[C@H](CC(C)C)NC(=O)CCC1CC(OC(=O)NCc2cccc3ccccc23)CC2(CCCC(COC(=O)NCCOC)O2)O1 (stereo partly specified)

>  <z-score>
-1.73

$$$$
>  <compound>
CC(C)C[C@H](NC(=O)CCC1CC(OC(=O)NCc2cccc3ccccc23)CC2(CCCC(COC(=O)NCc3ccccc3)O2)O1)C(=O)NCC(c1ccccc1)c1ccccc1 (stereo partly specified)

>  <z-score>
-0.0457

$$$$
>  <compound>
CO[C@@H]1COC(=O)CC=C[C@@H](C)[C@@H]2C=C[C@H](O)[C@@H](COC(=O)CC=C[C@H]1C)O2

>  <z-score>
-0.72

$$$$
>  <compound>
CCC=CCCC(OC(=O)c1ccc(Br)cc1)C1=CCCCC1=O (stereo unspecified)

>  <z-score>
-0.791

$$$$
>  <compound>
CO[C@@H]1COC(=O)[C@H](CCSC)NC(=O)CC=C[C@@H](C)COC(=O)CCC[C@H]1C

>  <z-score>
0.0665

$$$$

----------
- methodSummary: A549 lung cancer cell viability effects, profiling panel, resazurin fluorescence, 24 h, PK04 Diversity Set (AID 1171); note: test concentration not given here
- assaySetup: higher = more signal, called active from +8 up or from −8 down

>  <compound>
COC(=O)[C@H](C)NC(=O)CCC1CC(OC(=O)NCCc2ccc(F)cc2)CC2(CCCC(COC(=O)NCCC(C)C)O2)O1 (stereo partly drawn)

>  <z-score>
0.693

$$$$
>  <compound>
COc1ccc(O[C@H]2C=C[C@@H](c3ccccc3)O[C@@H]2COC(=O)CCC(C)=NOC[C@@H](O)[C@H]2O[C@@H]3OC(C)(C)O[C@@H]3[C@H]2O)cc1

>  <z-score>
0.138

$$$$
>  <compound>
COc1ccc(C#C[C@@H]2C=C[C@H](OC(C)=O)[C@@H](COC(C)=O)O2)cc1

>  <z-score>
-0.0296

$$$$
>  <compound>
O=C1C2=CC[C@H]3C(=O)N(c4cccc(Oc5ccccc5)c4)C(=O)[C@H]3[C@H]2[C@H](O)[C@@H]2O[C@H]12

>  <z-score>
-1.35

$$$$
>  <compound>
CCC=CCCC(OC(=O)c1ccc(Br)cc1)C1=CCCCC1=O (stereo not drawn)

>  <z-score>
0.863

$$$$
>  <compound>
COc1cccc([C@H]2Oc3ccc(OC)cc3C(=NOC[C@@H](O)COCc3ccco3)[C@@H]2O)c1

>  <z-score>
-1.55

$$$$
>  <compound>
O=C1OCCC=C1C(O)CCc1ccccc1 (stereo not drawn)

>  <z-score>
-0.0147

$$$$
>  <compound>
COc1ccc(O[C@H]2C=C[C@@H](c3ccccc3)O[C@@H]2CON=C(C)C)cc1

>  <z-score>
0.0001

$$$$
